Recorded melting point values for a group of compounds are listed next.

{"compound": "Clc1cc(Cl)c2c(c1)CN=C(c1ccc3c(c1)CCC3)c1cccn1-2", "melting point": "178.5 to 180.2 °C"}
{"compound": "O=C1CCCc2cc(C3=NCc4ccc(Cl)cc4-n4cccc43)ccc21", "melting point": "> 280 °C"}
{"compound": "Cl.Clc1cccc2c1CNC(c1ccc3c(c1)CCC3)c1cccn1-2 (centres unmarked)", "melting point": "242.7 to 243.5 °C"}
{"compound": "Clc1cccc2c1CN=C(c1ccc3c(c1)OCC3)c1cccn1-2", "melting point": "180.5 to 181.2 °C"}
{"compound": "Fc1cc(Cl)c2c(c1)-n1cccc1C(c1ccc3c(c1)CCC3(F)F)=NC2", "melting point": "170.2 to 171.8 °C"}
{"compound": "Clc1cccc2c1CN=C(c1ccc3c(c1)CCC3)c1cccn1-2", "melting point": "181.3 to 182.7 °C"}

input: Fill in reported melting point for this entry: Cn1c(=O)oc2ccc(C3=NCc4c(Cl)cccc4-n4cccc43)cc21
output: 218.6 to 221 °C

input: Fill in reported melting point for this entry: CN1C(=O)C(C)(C)c2cc(C3=NCc4c(Cl)cccc4-n4cccc43)ccc21
output: 233.7 to 235.1 °C

input: Fill in reported melting point for this entry: Fc1cccc2c1CN=C(c1ccc3c(c1)CCC(F)(F)O3)c1cccn1-2
output: 158.9 to 159.3 °C

input: Fill in reported melting point for this entry: O=C1OCc2ccc(C3=NCc4c(F)cccc4-n4cccc43)cc21
output: 224.6 to 246 °C

input: Fill in reported melting point for this entry: O=C1CCc2ccc(C3=NCc4c(Cl)cccc4-n4cccc43)cc21
output: 214 to 217 °C

input: Fill in reported melting point for this entry: O=C1OCc2ccc(C3=NCc4c(Cl)cc(Cl)cc4-n4cccc43)cc21
output: 210.5 to 212 °C
